The measured values listed here are drawn from patent US12447153B2.

target: MDR1 (P-gp) (Homo sapiens (Human)); experiment: in vitro; settings: pig, LLC-PK1
Sequence (P08183 whole entry): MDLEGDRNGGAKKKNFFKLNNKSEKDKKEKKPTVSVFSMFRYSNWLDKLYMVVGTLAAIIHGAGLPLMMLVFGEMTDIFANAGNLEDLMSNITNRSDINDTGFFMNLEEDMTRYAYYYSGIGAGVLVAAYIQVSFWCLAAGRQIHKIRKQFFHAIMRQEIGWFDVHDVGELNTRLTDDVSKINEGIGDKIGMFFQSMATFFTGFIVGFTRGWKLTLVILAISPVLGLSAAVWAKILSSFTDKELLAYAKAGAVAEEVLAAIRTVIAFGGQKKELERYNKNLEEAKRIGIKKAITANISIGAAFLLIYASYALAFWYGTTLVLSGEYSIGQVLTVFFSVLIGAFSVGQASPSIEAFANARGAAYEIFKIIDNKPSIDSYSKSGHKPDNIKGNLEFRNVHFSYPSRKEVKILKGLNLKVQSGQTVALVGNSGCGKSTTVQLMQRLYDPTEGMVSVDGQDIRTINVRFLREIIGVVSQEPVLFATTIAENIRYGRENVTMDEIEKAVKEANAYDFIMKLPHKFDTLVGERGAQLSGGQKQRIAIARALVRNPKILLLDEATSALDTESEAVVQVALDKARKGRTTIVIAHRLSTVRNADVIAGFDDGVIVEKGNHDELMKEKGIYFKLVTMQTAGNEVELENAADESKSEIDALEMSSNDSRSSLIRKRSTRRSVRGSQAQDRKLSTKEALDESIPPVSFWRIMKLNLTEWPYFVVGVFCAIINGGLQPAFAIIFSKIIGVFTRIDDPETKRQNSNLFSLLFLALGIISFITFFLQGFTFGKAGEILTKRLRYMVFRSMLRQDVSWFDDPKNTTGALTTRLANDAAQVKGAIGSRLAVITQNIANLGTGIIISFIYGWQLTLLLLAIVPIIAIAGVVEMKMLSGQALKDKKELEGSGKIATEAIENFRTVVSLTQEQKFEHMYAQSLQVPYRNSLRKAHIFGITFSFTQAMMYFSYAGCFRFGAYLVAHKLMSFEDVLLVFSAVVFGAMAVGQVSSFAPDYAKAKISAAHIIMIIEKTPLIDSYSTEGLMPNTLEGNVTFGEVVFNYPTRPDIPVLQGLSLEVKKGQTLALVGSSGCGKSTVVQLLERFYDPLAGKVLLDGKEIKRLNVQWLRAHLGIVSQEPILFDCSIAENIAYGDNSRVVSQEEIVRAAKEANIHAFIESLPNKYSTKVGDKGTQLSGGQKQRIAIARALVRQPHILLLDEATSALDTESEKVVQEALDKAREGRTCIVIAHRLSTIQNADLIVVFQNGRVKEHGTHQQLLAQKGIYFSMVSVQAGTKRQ
result-type: efflux ratio at 2 h, 1 µM
Write the number on its own, no unit after it.

compound	efflux ratio at 2 h, 1 µM
C=CC(=O)N1CCCC(c2ccc3ncnc(Nc4cc(C)c(Oc5cnc6c(c5)ncn6C)cc4F)c3n2)CC1 (stereo not drawn)	1.6
C=CC(=O)N1C[C@H]2C[C@@H]1CN(c1ccc3ncnc(Nc4cc(Cl)c(Oc5ccc6c(c5)ncn6C)cc4F)c3n1)C2	1.6

Given the compound C=CC(=O)N1C[C@@H]2C[C@H]1CN(c1ccc3ncnc(Nc4ccc(Oc5ccc6c(c5)ncn6C)c(C)c4F)c3n1)C2 , what is its reported efflux ratio at 2 h, 1 µM? 2

So what's the measured efflux ratio at 2 h, 1 µM for this one? C=CC(=O)N1[C@@H]2CC[C@H]1[C@H](c1ccc3ncnc(Nc4ccc(Oc5cnc6c(c5)ncn6C)c(C)c4F)c3n1)C2 0.8

efflux ratio at 2 h, 1 µM lookup needed for C=CC(=O)N1CCC(c2ccc3ncnc(Nc4ccc(Oc5ccc6c(c5)ncn6C)c(C)c4F)c3n2)CC1(C)C (stereo not drawn) , thanks. 1.2

Which efflux ratio at 2 h, 1 µM reading was recorded for the compound C=CC(=O)N1C[C@@H](c2ccc3ncnc(Nc4cc(C)c(Oc5ccc6c(c5)ncn6C)cc4F)c3n2)C[C@@H]1C ? 3.9
